Data credit: the NIST ThermoML archive (doi:10.1016/j.jct.2010.01.004)

The reader will find reported activity coefficient values listed item by item below.
- Assay Remarks: activity coefficient (dimensionless); of the first substance listed, at infinite dilution; xn = mol fraction of the nth substance listed
- Study Conditions: 318.15 K; Liquid; Chromatography; x1 = 0
Attribute Measured: activity coefficient

Cc1cccc(C)c1 [1,3-dimethylbenzene] + CC(C)C[P+](C)(CC(C)C)CC(C)C.Cc1ccc(S(=O)(=O)[O-])cc1 : 2.44
Cc1ccccc1C [1,2-dimethylbenzene] + CC(C)C[P+](C)(CC(C)C)CC(C)C.Cc1ccc(S(=O)(=O)[O-])cc1 : 2.18
CO [methanol] + CC(C)C[P+](C)(CC(C)C)CC(C)C.Cc1ccc(S(=O)(=O)[O-])cc1 : 0.166
C#CCCCCC [1-heptyne] + CC(C)C[P+](C)(CC(C)C)CC(C)C.Cc1ccc(S(=O)(=O)[O-])cc1 : 2.54
C=CCCC [1-pentene] + CC(C)C[P+](C)(CC(C)C)CC(C)C.Cc1ccc(S(=O)(=O)[O-])cc1 : 14.5
C#CCCC [1-pentyne] + CC(C)C[P+](C)(CC(C)C)CC(C)C.Cc1ccc(S(=O)(=O)[O-])cc1 : 2.24
C=CCCCCCC [oct-1-ene] + CC(C)C[P+](C)(CC(C)C)CC(C)C.Cc1ccc(S(=O)(=O)[O-])cc1 : 12.2
C1CCCCC1 [cyclohexane] + CC(C)C[P+](C)(CC(C)C)CC(C)C.Cc1ccc(S(=O)(=O)[O-])cc1 : 10.5
O [water] + CC(C)C[P+](C)(CC(C)C)CC(C)C.Cc1ccc(S(=O)(=O)[O-])cc1 : 0.585
c1ccccc1 [benzene] + CC(C)C[P+](C)(CC(C)C)CC(C)C.Cc1ccc(S(=O)(=O)[O-])cc1 : 1.35
C1CCCCCC1 [cycloheptane] + CC(C)C[P+](C)(CC(C)C)CC(C)C.Cc1ccc(S(=O)(=O)[O-])cc1 : 7.64
C1CCCC1 [cyclopentane] + CC(C)C[P+](C)(CC(C)C)CC(C)C.Cc1ccc(S(=O)(=O)[O-])cc1 : 9.69
C#CCCCC [1-hexyne] + CC(C)C[P+](C)(CC(C)C)CC(C)C.Cc1ccc(S(=O)(=O)[O-])cc1 : 2.32
COC(C)(C)C [2-methoxy-2-methylpropane] + CC(C)C[P+](C)(CC(C)C)CC(C)C.Cc1ccc(S(=O)(=O)[O-])cc1 : 8.26
C=CCCCCC [1-heptene] + CC(C)C[P+](C)(CC(C)C)CC(C)C.Cc1ccc(S(=O)(=O)[O-])cc1 : 11.9

###

- Assay Remarks: activity coefficient (dimensionless); of the first substance listed, at infinite dilution; xn = mol fraction of the nth substance listed
- Study Conditions: 318.15 K; Liquid; Chromatography; x1 = 0
Attribute Measured: activity coefficient

C1CCOC1 [tetrahydrofuran] + CC(C)C[P+](C)(CC(C)C)CC(C)C.Cc1ccc(S(=O)(=O)[O-])cc1 : 1.22
C#CCCCCCC [1-octyne] + CC(C)C[P+](C)(CC(C)C)CC(C)C.Cc1ccc(S(=O)(=O)[O-])cc1 : 3.06
CCCCC [pentane] + CC(C)C[P+](C)(CC(C)C)CC(C)C.Cc1ccc(S(=O)(=O)[O-])cc1 : 28.5
CCCO [propan-1-ol] + CC(C)C[P+](C)(CC(C)C)CC(C)C.Cc1ccc(S(=O)(=O)[O-])cc1 : 0.282
CCCCCCCC [octane] + CC(C)C[P+](C)(CC(C)C)CC(C)C.Cc1ccc(S(=O)(=O)[O-])cc1 : 20.6
CCCCO [butan-1-ol] + CC(C)C[P+](C)(CC(C)C)CC(C)C.Cc1ccc(S(=O)(=O)[O-])cc1 : 0.322
CCCCCCC [heptane] + CC(C)C[P+](C)(CC(C)C)CC(C)C.Cc1ccc(S(=O)(=O)[O-])cc1 : 20.8
CCO [ethanol] + CC(C)C[P+](C)(CC(C)C)CC(C)C.Cc1ccc(S(=O)(=O)[O-])cc1 : 0.259

###

The reader will find reported activity coefficient values listed item by item below.
- Assay Remarks: activity coefficient (dimensionless); of the first substance listed, at infinite dilution; xn = mol fraction of the nth substance listed
- Study Conditions: 338.15 K; Liquid; Chromatography; x1 = 0
Attribute Measured: activity coefficient

Cc1ccc(C)cc1 [1,4-dimethylbenzene] + CC(C)C[P+](C)(CC(C)C)CC(C)C.Cc1ccc(S(=O)(=O)[O-])cc1 : 2.26
c1ccsc1 [thiophene] + CC(C)C[P+](C)(CC(C)C)CC(C)C.Cc1ccc(S(=O)(=O)[O-])cc1 : 0.812
Cc1ccccc1 [toluene] + CC(C)C[P+](C)(CC(C)C)CC(C)C.Cc1ccc(S(=O)(=O)[O-])cc1 : 1.66

###

- Assay Remarks: activity coefficient (dimensionless); of the first substance listed, at infinite dilution; xn = mol fraction of the nth substance listed
- Study Conditions: 328.15 K; Liquid; Chromatography; x1 = 0
The reader will find reported activity coefficient values listed item by item below.
Attribute Measured: activity coefficient

C#CCCC [1-pentyne] + CC(C)C[P+](C)(CC(C)C)CC(C)C.Cc1ccc(S(=O)(=O)[O-])cc1 : 1.98
C=CCCCC [hex-1-ene] + CC(C)C[P+](C)(CC(C)C)CC(C)C.Cc1ccc(S(=O)(=O)[O-])cc1 : 9.35
C=CCCCCCC [oct-1-ene] + CC(C)C[P+](C)(CC(C)C)CC(C)C.Cc1ccc(S(=O)(=O)[O-])cc1 : 10.8
c1ccccc1 [benzene] + CC(C)C[P+](C)(CC(C)C)CC(C)C.Cc1ccc(S(=O)(=O)[O-])cc1 : 1.28
CCCCC [pentane] + CC(C)C[P+](C)(CC(C)C)CC(C)C.Cc1ccc(S(=O)(=O)[O-])cc1 : 18.5
c1ccsc1 [thiophene] + CC(C)C[P+](C)(CC(C)C)CC(C)C.Cc1ccc(S(=O)(=O)[O-])cc1 : 0.818
Cc1cccc(C)c1 [1,3-dimethylbenzene] + CC(C)C[P+](C)(CC(C)C)CC(C)C.Cc1ccc(S(=O)(=O)[O-])cc1 : 2.33
O [water] + CC(C)C[P+](C)(CC(C)C)CC(C)C.Cc1ccc(S(=O)(=O)[O-])cc1 : 0.552
C1CCOC1 [tetrahydrofuran] + CC(C)C[P+](C)(CC(C)C)CC(C)C.Cc1ccc(S(=O)(=O)[O-])cc1 : 1.12

###

- Assay Remarks: activity coefficient (dimensionless); of the first substance listed, at infinite dilution; xn = mol fraction of the nth substance listed
- Study Conditions: 298.15 K; Liquid; Chromatography; x1 = 0
Attribute Measured: activity coefficient

C#CCCC [1-pentyne] + CC(C)C[P+](C)(CC(C)C)CC(C)C.Cc1ccc(S(=O)(=O)[O-])cc1 : 3.01
Cc1ccccc1C [1,2-dimethylbenzene] + CC(C)C[P+](C)(CC(C)C)CC(C)C.Cc1ccc(S(=O)(=O)[O-])cc1 : 2.31
C1CCCCCCC1 [cyclooctane] + CC(C)C[P+](C)(CC(C)C)CC(C)C.Cc1ccc(S(=O)(=O)[O-])cc1 : 10.5
CCCCCCCCC [nonane] + CC(C)C[P+](C)(CC(C)C)CC(C)C.Cc1ccc(S(=O)(=O)[O-])cc1 : 26.8
Cc1ccccc1 [toluene] + CC(C)C[P+](C)(CC(C)C)CC(C)C.Cc1ccc(S(=O)(=O)[O-])cc1 : 1.94
C=CCCCCCC [oct-1-ene] + CC(C)C[P+](C)(CC(C)C)CC(C)C.Cc1ccc(S(=O)(=O)[O-])cc1 : 16.6
CCc1ccccc1 [ethylbenzene] + CC(C)C[P+](C)(CC(C)C)CC(C)C.Cc1ccc(S(=O)(=O)[O-])cc1 : 2.51
CCCCCC [hexane] + CC(C)C[P+](C)(CC(C)C)CC(C)C.Cc1ccc(S(=O)(=O)[O-])cc1 : 48.8
C#CCCCC [1-hexyne] + CC(C)C[P+](C)(CC(C)C)CC(C)C.Cc1ccc(S(=O)(=O)[O-])cc1 : 2.69
C=CCCCCC [1-heptene] + CC(C)C[P+](C)(CC(C)C)CC(C)C.Cc1ccc(S(=O)(=O)[O-])cc1 : 19.2
CCCCCCC [heptane] + CC(C)C[P+](C)(CC(C)C)CC(C)C.Cc1ccc(S(=O)(=O)[O-])cc1 : 35.2
CO [methanol] + CC(C)C[P+](C)(CC(C)C)CC(C)C.Cc1ccc(S(=O)(=O)[O-])cc1 : 0.168
C1CCCC1 [cyclopentane] + CC(C)C[P+](C)(CC(C)C)CC(C)C.Cc1ccc(S(=O)(=O)[O-])cc1 : 20.6
C1CCCCC1 [cyclohexane] + CC(C)C[P+](C)(CC(C)C)CC(C)C.Cc1ccc(S(=O)(=O)[O-])cc1 : 22.5
c1ccsc1 [thiophene] + CC(C)C[P+](C)(CC(C)C)CC(C)C.Cc1ccc(S(=O)(=O)[O-])cc1 : 0.901
CCCCCCCC [octane] + CC(C)C[P+](C)(CC(C)C)CC(C)C.Cc1ccc(S(=O)(=O)[O-])cc1 : 30.7
C=CCCC [1-pentene] + CC(C)C[P+](C)(CC(C)C)CC(C)C.Cc1ccc(S(=O)(=O)[O-])cc1 : 30.5
COC(C)(C)C [2-methoxy-2-methylpropane] + CC(C)C[P+](C)(CC(C)C)CC(C)C.Cc1ccc(S(=O)(=O)[O-])cc1 : 17.1
